# System: NCI-H1944
# MEASUREMENT_DESCRIPTION: relative viability (nuclei count vs DMSO), 5 days (fraction); higher = more cells survive
# SETTINGS: first compound 0.6325 µM
# relative viability per entry
Respond using a number only.

Example entries and their recorded answers appear below.
COCC1(CO)C(=O)C2CCN1CC2 (stereo not given) [PRIMA-1MET] + N=C(N)NC(=N)NCCc1ccccc1 [Phenformin] (partner 250 µM) ... 0.189
COCC1(CO)C(=O)C2CCN1CC2 (stereo not given) [PRIMA-1MET] + Cc1cc(Nc2cc(N3CCN(C)CC3)nc(Sc3ccc(NC(=O)C4CC4)cc3)n2)n[nH]1 [Tozasertib] (partner 0.1 µM) ... 0.242
COCC1(CO)C(=O)C2CCN1CC2 (stereo not given) [PRIMA-1MET] + CC1(C)CCC(c2ccc(Cl)cc2)=C(CN2CCN(c3ccc(C(=O)NS(=O)(=O)c4ccc(N[C@H](CCN5CCOCC5)CSc5ccccc5)c(S(=O)(=O)C(F)(F)F)c4)cc3)CC2)C1 [Navitoclax] (partner 0.5 µM) ... 0.892

# returns recorded relative viability (system: NCI-H1944) for COCC1(CO)C(=O)C2CCN1CC2 (stereo not given) [PRIMA-1MET] + C[C@]1(O)C[C@@H](c2nc(-c3ccc4ccc(-c5ccccc5)nc4c3)c3c(N)nccn32)C1 [Linsitinib] (partner 1 µM) 0.95

// lookup relative viability | system=NCI-H1944 | key= COCC1(CO)C(=O)C2CCN1CC2 (stereo not given) [PRIMA-1MET] + O=C(CCCCCCC(=O)Nc1ccccc1)NO [Vorinostat] (partner 1 µM) 0.4

* * *

# Tested on: LCLC-97TM1
# MEASUREMENT_DESCRIPTION: relative viability (nuclei count vs DMSO), 5 days (fraction); higher = more cells survive
# SETTINGS: first compound 0.2 µM
Rule: relative viability below 0.5 gives y. Equal to or above 0.5 gives n.

Consider the worked cases shown below.
COCC1(CO)C(=O)C2CCN1CC2 (stereo unspecified) [PRIMA-1MET] + CS(=O)(=O)CCNCc1ccc(-c2ccc3ncnc(Nc4ccc(OCc5cccc(F)c5)c(Cl)c4)c3c2)o1 [Lapatinib] (partner 2 µM) ... n
COCC1(CO)C(=O)C2CCN1CC2 (stereo unspecified) [PRIMA-1MET] + CC(=O)Nc1cccc(-n2c(=O)n(C3CC3)c(=O)c3c(Nc4ccc(I)cc4F)n(C)c(=O)c(C)c32)c1 [Trametinib] (partner 0.02 µM) ... y
COCC1(CO)C(=O)C2CCN1CC2 (stereo unspecified) [PRIMA-1MET] + CCNC(=O)c1noc(-c2cc(C(C)C)c(O)cc2O)c1-c1ccc(CN2CCOCC2)cc1 [Luminespib] (partner 0.01 µM) ... n
COCC1(CO)C(=O)C2CCN1CC2 (stereo unspecified) [PRIMA-1MET] + O=C(c1cc(Cc2n[nH]c(=O)c3ccccc23)ccc1F)N1CCN(C(=O)C2CC2)CC1 [Olaparib] (partner 8 µM) ... y

Take the compound COCC1(CO)C(=O)C2CCN1CC2 (stereo unspecified) [PRIMA-1MET] + Cc1nc(NC(=O)N2CCC[C@H]2C(N)=O)sc1-c1ccnc(C(C)(C)C(F)(F)F)c1 [Alpelisib] (partner 2 µM) and say whether its relative viability is less than 0.5. y

* * *

# System: NCI-H322M
# MEASUREMENT_DESCRIPTION: relative viability (nuclei count vs DMSO), 5 days (fraction); higher = more cells survive
# SETTINGS: first compound 0.1 µM
PROPERTY_LABEL: relative viability
Please give only the number in your answer, with no unit.

O=c1cc(N2CCOCC2)oc2c(-c3cccc4c3sc3ccccc34)cccc12 + N=C(N)NC(=N)NCCc1ccccc1 [Phenformin] (partner 250 µM) ... 0.395
CCN(CC)CCCCNc1ncc2cc(-c3cc(OC)cc(OC)c3)c(NC(=O)NC(C)(C)C)nc2n1 + Nc1ncn([C@H]2C[C@H](O)[C@@H](CO)O2)c(=O)n1 [Decitabine] (partner 2 µM) ... 0.687
CCN(CC)CCCCNc1ncc2cc(-c3cc(OC)cc(OC)c3)c(NC(=O)NC(C)(C)C)nc2n1 + C[C@]1(O)C[C@@H](c2nc(-c3ccc4ccc(-c5ccccc5)nc4c3)c3c(N)nccn32)C1 [Linsitinib] (partner 1 µM) ... 0.938

Form field: relative viability recorded for O=c1cc(N2CCOCC2)oc2c(-c3cccc4c3sc3ccccc34)cccc12 + Cc1cc(Nc2cc(N3CCN(C)CC3)nc(Sc3ccc(NC(=O)C4CC4)cc3)n2)n[nH]1 [Tozasertib] (partner 0.1 µM) with NCI-H322M (enter value) 0.485

Give the reported relative viability for CCN(CC)CCCCNc1ncc2cc(-c3cc(OC)cc(OC)c3)c(NC(=O)NC(C)(C)C)nc2n1 + NC(=O)Nc1cc(-c2cccc(F)c2)sc1C(=O)N[C@H]1CCCNC1 [AZD7762] (partner 0.2 µM) (system: NCI-H322M). 0.59
